Values compiled from PubChem BioAssay AID1920062.

# tested-on: Atrial natriuretic peptide receptor 2 (Homo sapiens) (UniProt P20594)
# Sequence (P20594 whole entry, looked up): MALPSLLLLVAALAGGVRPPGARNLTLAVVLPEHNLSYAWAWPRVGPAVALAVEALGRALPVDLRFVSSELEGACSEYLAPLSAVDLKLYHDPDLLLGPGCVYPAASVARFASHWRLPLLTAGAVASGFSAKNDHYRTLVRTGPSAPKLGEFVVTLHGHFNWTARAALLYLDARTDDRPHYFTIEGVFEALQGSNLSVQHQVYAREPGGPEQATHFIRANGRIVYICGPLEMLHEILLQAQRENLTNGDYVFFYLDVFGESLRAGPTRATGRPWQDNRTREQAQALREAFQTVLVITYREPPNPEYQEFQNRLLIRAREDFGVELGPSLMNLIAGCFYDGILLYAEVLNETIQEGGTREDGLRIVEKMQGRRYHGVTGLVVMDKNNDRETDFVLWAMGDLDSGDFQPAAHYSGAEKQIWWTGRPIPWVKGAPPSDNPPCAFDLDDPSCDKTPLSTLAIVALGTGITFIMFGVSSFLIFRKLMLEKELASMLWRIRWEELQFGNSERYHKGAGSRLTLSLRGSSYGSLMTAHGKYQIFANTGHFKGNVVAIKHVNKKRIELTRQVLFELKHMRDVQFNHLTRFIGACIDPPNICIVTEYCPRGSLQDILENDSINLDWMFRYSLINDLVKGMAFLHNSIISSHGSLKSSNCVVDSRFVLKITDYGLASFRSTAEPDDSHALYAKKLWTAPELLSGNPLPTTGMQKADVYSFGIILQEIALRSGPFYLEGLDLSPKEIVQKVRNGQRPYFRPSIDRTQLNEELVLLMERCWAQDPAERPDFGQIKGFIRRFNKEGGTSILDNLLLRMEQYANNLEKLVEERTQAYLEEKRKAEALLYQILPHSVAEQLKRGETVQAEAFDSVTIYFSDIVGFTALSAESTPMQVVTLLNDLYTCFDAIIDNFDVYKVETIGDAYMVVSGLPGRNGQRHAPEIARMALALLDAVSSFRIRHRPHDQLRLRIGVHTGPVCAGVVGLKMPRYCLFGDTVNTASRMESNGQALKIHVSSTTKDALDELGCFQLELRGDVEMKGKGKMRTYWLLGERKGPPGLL
# assay-details: GC-B stimulated cGMP production enhancers – HEK293 GC-B cells, cGMP TR-FRET, EC30 CNP, primary screen (AID 1920062)
# stated-conditions: at 10 µM, 0% at EC30 CNP, 100% saturating CNP
About 400 (0.11%) of roughly 370,000 compounds were called active.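 How the source made its calls: active means activation at 10 µM reaching about 35% in either raw or pattern-adjusted values (limit read from the data); inactive means the rest.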 The list comes from a sample in which actives are over-represented; it also holds close analogues and randomly drawn compounds.
Can you answer with just one of these options? active, inactive

[[record]]
compound = "CN1CCN(S(=O)(=O)c2ccc(NC(=O)C3CCCO3)cc2)CC1 (stereo unspecified)"
class = "inactive"


Challenge: Kindly provide the recorded test outcome for the following compound: COc1cccc2cc(C(C)N(CCCN3CCOCC3)C(=O)Nc3ccc(Cl)cc3)oc12 (stereo unspecified)
Response given: inactive

Challenge: Kindly provide the recorded test outcome for the following compound: `Cc1ccccc1C1=NC(C(F)(F)F)(C(F)(F)F)c2c(n(-c3ccc(F)cc3)c(=O)[nH]c2=O)N1`
Response given: inactive

Challenge: Kindly provide the recorded test outcome for the following compound: `COc1ccc(CNC(=O)COC(=O)CCS(=O)(=O)c2ccc(C)cc2)cc1OC`
Response given: inactive

Challenge: Kindly provide the recorded test outcome for the following compound: `CC(C)OC(=O)c1sc2nc3c(cc2c1N)C(=O)CCC3`
Response given: inactive

Challenge: Kindly provide the recorded test outcome for the following compound: `Nc1ncnc(Nc2cccc(Cl)c2Cl)n1`
Response given: inactive

---

Overview of recorded activation for various compounds
# tested-on: Atrial natriuretic peptide receptor 2 (Homo sapiens) (UniProt P20594)
# assay-details: GC-B stimulated cGMP production enhancers – HEK293 GC-B cells, cGMP TR-FRET, EC30 CNP, primary screen (AID 1920062)
# stated-conditions: at 10 µM, hits give high values, 0% at EC30 CNP, 100% saturating CNP
Among all 370,000 compounds or so, about 400 (0.11%) were called active. The full list was thinned out, with actives kept by preference.
Numbers only; they are read as %.

Below, 4 compounds whose answers are already recorded.
[[record]]
compound = "CCOC(=O)c1ccccc1NC(=O)COC(=O)C(Cc1c[nH]c2ccccc12)NC(C)=O (stereo not drawn)"
quantity = "activation"
numeric_readout = -17.1

[[record]]
compound = "COC(=O)[C@@H]1C[C@@]2(O)[C@@H](O)[C@@H](O)[C@@H](O)C[C@H]2N1Cc1ccc(C)s1"
quantity = "activation"
numeric_readout = -2.84

[[record]]
compound = "CC(C)(C)c1ccc(C(=O)NCC(=O)OCN2C(=O)c3ccccc3C2=O)cc1"
quantity = "activation"
numeric_readout = -3.65

[[record]]
compound = "CCn1c(CNC(=O)c2ccccc2)nnc1SCC(=O)N1CCN(c2ccccc2)CC1"
quantity = "activation"
numeric_readout = 1.17


Challenge: What measured activation goes with `Cc1nnc(NC(=O)CSc2nc(C3CCCCC3)nc3ccccc23)s1` ?
Response given: 3.79

Challenge: What measured activation goes with `COC(=O)[C@]1(Cc2ccccc2)N[C@H](CN(C)S(=O)(=O)c2ccc(F)cc2)[C@@H]2C(=O)N(Cc3ccccc3)C(=O)[C@@H]21` ?
Response given: -3.49

Challenge: What measured activation goes with `CN(C(=O)CC(NC(=O)c1ccccc1)(c1ccccc1)c1ccccc1)c1ccccc1` ?
Response given: -19.3

Challenge: What measured activation goes with `CC(C)n1c(-c2ccncc2)n[nH]c1=S` ?
Response given: 5.74
